These entries and their values trace back to the supplement of paper PMC11865577.

Quick list: pull-down binding Z-score per entry.
# System: TO-3-N3-2 (biotin conjugate)
# Experiment Description: pull-down binding Z-score (relative to library population); higher = stronger binding
# Test Context: RNA library: Library-2

{"columns": ["Sequence", "pull-down binding Z-score"],
 "data": [
  ["UAGCUGGUUUUGCUA [SHAPE_invivo_SARS-CoV-2_Motif_257]", 0.105],
  ["GGCGUGGACAACUUGCU [hsa-mir-3943]", -0.0337],
  ["UGUAAGUUUGCGAUGAGACACUACA [hsa-mir-144]", 0.297],
  ["GGUUCAACUCUCCCUAGGAGGUCUGGAGCC [IAV_invivo_NP_5_Motif_11+IAV_invivo_NP_5_Motif_11]", -0.309],
  ["UUCUCGGUUGGCCGCAGACUCGUACAAGAA [hsa-mir-219b]", 0.0156],
  ["AUUGUUGUGGGGUAGGGAUAUUAGGCCCCAAUUAGAAGAUAACUAU [hsa-mir-98]", 1.1],
  ["AUUGGCGACCCUGCUCAAU [DMSMaPseq_invitro_SARS-CoV-2_Motif_311]", -0.309],
  ["CCCACCAUGUACCAGUGGG [hsa-mir-4422]", -0.535],
  ["GCUAUAUGAUGC [IAV_invivo_PA_3_Motif_14+IAV_invivo_PA_3_Motif_14]", -0.212],
  ["GGCUAUGUAACACAUGGCU", -0.449],
  ["GGAGGGUGAGCUUUCUGAAAACCCCUCC [hsa-mir-188]", 0.358]
]}

###

Quick list: pull-down binding Z-score per entry.
# Test system: G-clamp-N3 (biotin conjugate)
# Experiment Description: pull-down binding Z-score (relative to library population); higher = stronger binding
# Test Context: RNA library: Library-1 (pre-miRNA loops + repeats)
Readout Type: pull-down binding Z-score

{"columns": ["Sequence", "System Under Test", "Readout Type", "Observed Measurement"],
 "data": [
  ["UCACAGUUGGUUUCUGACACGUGG [hsa-mir-4535]", "G-clamp-N3 (biotin conjugate)", "pull-down binding Z-score", 0.283],
  ["GUUGCAUGUUGUCACGGCCUCAAUGCAAU [hsa-mir-32]", "G-clamp-N3 (biotin conjugate)", "pull-down binding Z-score", -1.33],
  ["GGGGCUGAGGCUGAGUCUUCCUCCC [hsa-mir-6756]", "G-clamp-N3 (biotin conjugate)", "pull-down binding Z-score", 0.713],
  ["AUAUAAGGGAAGGCAUUAUAG [hsa-mir-3117]", "G-clamp-N3 (biotin conjugate)", "pull-down binding Z-score", 0.00615],
  ["AGUCACUUACACUACAUGUCACU [hsa-mir-892a]", "G-clamp-N3 (biotin conjugate)", "pull-down binding Z-score", -0.82],
  ["GUCACCAGCCCUCAUGUACUUGUGAC [hsa-mir-6820]", "G-clamp-N3 (biotin conjugate)", "pull-down binding Z-score", -1.09],
  ["GAGUAUUUUAAUACUGGCAUACUC [hsa-mir-1263]", "G-clamp-N3 (biotin conjugate)", "pull-down binding Z-score", -0.0468],
  ["UGGUCAGGCGGCU [hsa-mir-3917]", "G-clamp-N3 (biotin conjugate)", "pull-down binding Z-score", 0.0721],
  ["UCUUCUUGGAGUCAGGAAAA [hsa-mir-320d-2]", "G-clamp-N3 (biotin conjugate)", "pull-down binding Z-score", -0.411],
  ["CUGGCAUUUACGAGUCAGAGUUCUUACAGAGCUGC [hsa-mir-6514]", "G-clamp-N3 (biotin conjugate)", "pull-down binding Z-score", -1.37],
  ["AGAGCACCUCCUAGAGAAUGUUGAACUAAAGGUGCCC [hsa-mir-4723]", "G-clamp-N3 (biotin conjugate)", "pull-down binding Z-score", -0.814],
  ["UUUGCUGUUGAACGUAGUGGUAA [hsa-mir-548ar]", "G-clamp-N3 (biotin conjugate)", "pull-down binding Z-score", -0.679],
  ["UUUGCCUCUCUCAGAAAAUAGAGUCAAA [hsa-mir-4694]", "G-clamp-N3 (biotin conjugate)", "pull-down binding Z-score", 0.239],
  ["CAUUAACGUGGACCAGACAAUAUUAAUG [hsa-mir-4491]", "G-clamp-N3 (biotin conjugate)", "pull-down binding Z-score", -1.14],
  ["AGGCUCUGGGUCCGGCUUACUCCCUAGCUUACUGUCCUCAGAACCC [hsa-mir-6071]", "G-clamp-N3 (biotin conjugate)", "pull-down binding Z-score", -0.386],
  ["GGAGACACUUUUACUAUAUAUAGUGGCUCC [hsa-mir-3156-1]", "G-clamp-N3 (biotin conjugate)", "pull-down binding Z-score", -0.0968],
  ["GGGUCGUGGGAAAGUGUUGACCC [hsa-mir-4655]", "G-clamp-N3 (biotin conjugate)", "pull-down binding Z-score", 1.79],
  ["GUGAUUACAUUAAAACUUAAAAUUUCAC [hsa-mir-4719]", "G-clamp-N3 (biotin conjugate)", "pull-down binding Z-score", -1.01],
  ["AUUGGCUUGGAUUCUGCAAAGCCU [hsa-mir-7151]", "G-clamp-N3 (biotin conjugate)", "pull-down binding Z-score", 0.697],
  ["CUGGUGUUCUCACGCAAAGUGGCCAGGGUGUGGGAGACUAGA [hsa-mir-7161]", "G-clamp-N3 (biotin conjugate)", "pull-down binding Z-score", 2.32],
  ["GGCAGGAGGCAGUGAAGUAACUUGC [hsa-mir-3934]", "G-clamp-N3 (biotin conjugate)", "pull-down binding Z-score", -0.848],
  ["GUCACUGUCUCAAAUCAGUGAC [hsa-mir-549a]", "G-clamp-N3 (biotin conjugate)", "pull-down binding Z-score", -0.711],
  ["UUCAGAGUCAAUAUAAUUUUCUAG [hsa-mir-29a]", "G-clamp-N3 (biotin conjugate)", "pull-down binding Z-score", 0.0825],
  ["GUGAACAUUGCAU [hsa-mir-4301]", "G-clamp-N3 (biotin conjugate)", "pull-down binding Z-score", -0.223],
  ["UUGAGGGACAUGGUUAAUGGAAUUGUCUCA [hsa-mir-342]", "G-clamp-N3 (biotin conjugate)", "pull-down binding Z-score", 0.369],
  ["CAAGGGCUCUCCUGAAAGGACAGUAGAGCCCUUG [hsa-mir-4776-1]", "G-clamp-N3 (biotin conjugate)", "pull-down binding Z-score", 0.88],
  ["UAUUCUCUAU [hsa-mir-2054]", "G-clamp-N3 (biotin conjugate)", "pull-down binding Z-score", -1.01],
  ["UAUUCUGAUGUCCAAGUGGAAA [hsa-mir-372]", "G-clamp-N3 (biotin conjugate)", "pull-down binding Z-score", -0.198],
  ["UCCGGCCGGCCAUGCUGGCGGGG [hsa-mir-762]", "G-clamp-N3 (biotin conjugate)", "pull-down binding Z-score", 0.45],
  ["UUGUGUAUGUACUUAGCUGUACUAUA [hsa-mir-1244-1_1244-4_1244-2_1244-3]", "G-clamp-N3 (biotin conjugate)", "pull-down binding Z-score", 0.509],
  ["CCAUGCUGUUUAAGCCUAGCAUAG [hsa-mir-4423]", "G-clamp-N3 (biotin conjugate)", "pull-down binding Z-score", -0.374],
  ["CUGCAGGAAAGGGAAGACCAAGGCUUGCUGUCUGUCCAGUCUGCCACCCUACCCUGU [hsa-mir-1231]", "G-clamp-N3 (biotin conjugate)", "pull-down binding Z-score", -0.156],
  ["GUUGGCUCAAGAAAGGGAGAUAGAUGGUAGCCC [hsa-mir-6884]", "G-clamp-N3 (biotin conjugate)", "pull-down binding Z-score", 0.473],
  ["GAGACGCUUUUAAAGUCUC [hsa-mir-3926-2]", "G-clamp-N3 (biotin conjugate)", "pull-down binding Z-score", 0.131],
  ["CCCUCAUAUGGCAGUUGGCGAGGGCCCAGUGAG [hsa-mir-6769a]", "G-clamp-N3 (biotin conjugate)", "pull-down binding Z-score", 2.45],
  ["CCGACUCGGGCUCUGGAGCAGUC [hsa-mir-152]", "G-clamp-N3 (biotin conjugate)", "pull-down binding Z-score", 0.748],
  ["GAUUCUUGAGGCUUGGAAGAGUAAGGAUC [hsa-mir-6866]", "G-clamp-N3 (biotin conjugate)", "pull-down binding Z-score", -0.0295],
  ["CAUUGUAACAUGAUAGUG [hsa-mir-4264]", "G-clamp-N3 (biotin conjugate)", "pull-down binding Z-score", 0.389],
  ["GAAGCCUUGAUCAGAAGCUAGGAAGGCUUC [hsa-mir-4762]", "G-clamp-N3 (biotin conjugate)", "pull-down binding Z-score", 1.95],
  ["ACUACUAUAGGCCGCUGGGAAGCAGU [hsa-mir-130b]", "G-clamp-N3 (biotin conjugate)", "pull-down binding Z-score", 0.987],
  ["ACUACUGUGCUCUGAGAAGCAGU [hsa-mir-301b]", "G-clamp-N3 (biotin conjugate)", "pull-down binding Z-score", 1.42],
  ["AUGCCCCAGGUGACGUGCUGGGCU [hsa-mir-4526]", "G-clamp-N3 (biotin conjugate)", "pull-down binding Z-score", -0.192],
  ["UUCAUUUUAUUUAUGAUGAG [hsa-mir-496]", "G-clamp-N3 (biotin conjugate)", "pull-down binding Z-score", 1.12],
  ["UGAGUACAUUAUUUAUGAUUAAUCA [hsa-mir-376a-1]", "G-clamp-N3 (biotin conjugate)", "pull-down binding Z-score", -1.62],
  ["UACAAUUUUUUUUUUUUUAAAUUUUA [hsa-mir-1303]", "G-clamp-N3 (biotin conjugate)", "pull-down binding Z-score", 0.8]
]}
